B1: SAT2 (parent)
chain: GYGIYYFIYSTWKGRTIYLEDIYV

Variants of: B1
Assay: protein stability index of a GFP-peptide fusion (GPS, HEK-293T) (PSI 1-6); higher = more stable;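 also: lentivirally expressed fusions sorted by FACS into six bins by GFP to DsRed ratio, PSI derived from sequencing read proportions per bin multiplied by bin number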
Settings: c terminus: a fixed tail appended
Measured Parameter: protein stability index
Output: the number by itself.

Dear colleague, I am looking for the recorded protein stability index of the following variant: Y18M
2.33

Reported protein stability index, variant E20F : ____
2.84

Any idea what protein stability index was measured for I4H ?
2.53

# protein stability index lookup, item T16F
3.53

// protein stability index lookup, key: I4D
2.92

protein stability index for G3E ?
2.58

Looking for the measured protein stability index of Y6E , can you help?
2.64

Recorded protein stability index of F7G , please.
3.36

Data request, read-out protein stability index, for G14C
5.03

What protein stability index value was documented for this variant, Y9D ?
3.06

Reported protein stability index, variant G14M : ____
1.94

Tell me the measured protein stability index of T11M , please.
3.99

Any idea what protein stability index was measured for K13I ?
2.8

Quick check: protein stability index of F7A ?
2

Quick one: protein stability index of R15D ?
2.9

Which protein stability index is reported for this variant? I22S
3.3

For L19N , what is its reported protein stability index?
1.73

Query (variant): S10W ; field requested: protein stability index
2.26

Give the measured protein stability index of Y9N .
2.2

Name the reported protein stability index value associated with the variant Y9V
1.67

Give the measured protein stability index of G3F .
4.2

Item under review: F7R . Reported protein stability index?
2.72

Sample F7S — what was its protein stability index?
2.8

Which protein stability index is reported for this variant? Y5R
2.39

State the recorded protein stability index for this entry: K13G
2.94

Find the recorded protein stability index belonging to W12M and report it.
4.12

Item E20V has what recorded protein stability index?
3.13

Item under review: I4V . Reported protein stability index?
1.71

Consider the variant K13H and give its measured protein stability index.
2.87

Param item = E20A ; retrieve measured protein stability index.
3.56

Please look up its protein stability index: R15W
3.58

Which value of protein stability index has been reported for Y6F in the records?
3.09

For the variant Y18C , what protein stability index is on record?
1.89

For the variant R15G , what protein stability index is on record?
2.53

Requested field: protein stability index. Item: Y2D
2.06

I would be grateful if you could share the reported protein stability index for Y2R .
2.58

Item under review: I4M . Reported protein stability index?
3.54

Would you mind telling me what protein stability index value was observed for Y6Q ?
3.44

Consider the variant shown here: I17E What is its recorded protein stability index?
2.77

Form field: reported protein stability index of G3I
1.59

Find the recorded protein stability index belonging to T11S and report it.
2.44

Looking for the measured protein stability index of W12E , can you help?
2.55

Consider the variant E20S and give its measured protein stability index.
3.32

Would you kindly share the measured protein stability index for V24C ?
3.63

Which protein stability index is listed for I8R ?
3.57

Looking for the measured protein stability index of I8F , can you help?
3.4
